Please respond with reported pIC50 for every item in the list.
- target system: human TLR7 (Homo sapiens)
- Sequence (Q9NYK1 27-1049): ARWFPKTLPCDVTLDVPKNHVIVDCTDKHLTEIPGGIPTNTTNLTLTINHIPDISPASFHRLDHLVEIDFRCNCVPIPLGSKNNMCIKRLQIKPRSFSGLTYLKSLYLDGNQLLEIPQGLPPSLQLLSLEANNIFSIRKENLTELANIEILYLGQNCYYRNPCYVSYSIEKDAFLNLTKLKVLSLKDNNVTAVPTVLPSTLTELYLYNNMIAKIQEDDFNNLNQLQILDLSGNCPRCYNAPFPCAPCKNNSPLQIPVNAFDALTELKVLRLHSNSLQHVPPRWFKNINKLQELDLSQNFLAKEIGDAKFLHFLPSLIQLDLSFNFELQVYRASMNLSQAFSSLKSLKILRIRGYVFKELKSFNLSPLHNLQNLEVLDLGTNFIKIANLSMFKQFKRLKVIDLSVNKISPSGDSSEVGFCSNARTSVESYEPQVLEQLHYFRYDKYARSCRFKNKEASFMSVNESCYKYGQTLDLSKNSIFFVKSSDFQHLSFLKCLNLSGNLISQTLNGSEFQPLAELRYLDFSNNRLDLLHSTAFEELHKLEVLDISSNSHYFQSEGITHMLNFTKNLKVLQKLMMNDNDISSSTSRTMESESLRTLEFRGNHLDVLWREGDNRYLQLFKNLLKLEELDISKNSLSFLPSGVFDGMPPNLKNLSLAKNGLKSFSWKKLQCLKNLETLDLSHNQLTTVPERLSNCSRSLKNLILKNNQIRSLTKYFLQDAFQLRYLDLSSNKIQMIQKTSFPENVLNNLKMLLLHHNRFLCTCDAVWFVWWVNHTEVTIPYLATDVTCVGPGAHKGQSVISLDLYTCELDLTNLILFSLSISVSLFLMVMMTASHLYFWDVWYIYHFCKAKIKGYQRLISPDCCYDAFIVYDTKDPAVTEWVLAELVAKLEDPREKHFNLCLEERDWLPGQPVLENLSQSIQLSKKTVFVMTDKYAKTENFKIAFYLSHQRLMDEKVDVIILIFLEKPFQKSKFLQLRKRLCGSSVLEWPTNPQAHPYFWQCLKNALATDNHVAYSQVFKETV
- method description: TLR7 inhibition reporter assay (HEK-Blue cells, SEAP reporter, gardiquimod stimulation)
- cond: HEK-Blue cells overexpressing human TLR7, SEAP reporter, gardiquimod 7.5 μM
- Excerpt: TLR7/8/9 Inhibition Reporter Assays HEK-Blue™-cells (Invivogen) overexpressing human TLR7, TLR8 or TLR9 receptors were used for screening inhibitors of these receptors using an inducible SEAP (secreted embryonic alkaline phosphatase) reporter gene under the control of the IFN-β minimal promoter fused to five NF-κB and AP-1-binding sites. […]
pIC50: −log10 of the molar value.

Need pIC50, item CC(C)c1c(-c2cc(C(F)(F)F)c3nccn3c2)[nH]c2ccc(C3CCN(Cc4cnn(C)c4)CC3)cc12
> 7.00

Repeat with Cc1cc(-c2[nH]c3ccc(C4CCN(C5COC5)CC4)cc3c2C(C)C)cc2cncn12
6.00 to 7.00

Repeat with Cc1cc2[nH]c(-c3ccnc4[nH]ncc34)c(C(C)C)c2cc1C1CCNCC1
> 7.00

Repeat with Cc1cn2c(C)cc(-c3[nH]c4ccc(C5CCN(CC(=O)N(C)C)CC5)cc4c3C(C)C)cc2n1
6.00 to 7.00

Repeat with CNC(=O)CN1CCC(c2ccc3[nH]c(-c4cc(C)nc5ccccc45)c(C(C)C)c3c2)CC1
> 7.00

Repeat with CC(C)c1c(-c2ccn3cnnc3c2)[nH]c2ccc(C3CCN(C4COC4)CC3)cc12
> 7.00

Repeat with CCc1c(-c2ccnc3[nH]ncc23)[nH]c2ccc(C3CCN(Cc4ncco4)CC3)cc12
6.00 to 7.00

Repeat with CC(C)c1c(-c2ccnc3[nH]ncc23)[nH]c2ccc(C3CCN(C4CCCNC4)CC3)cc12 (centres unmarked)
> 7.00

---

- target system: human TLR8 (Homo sapiens)
- Sequence (Q9NR97 27-1041): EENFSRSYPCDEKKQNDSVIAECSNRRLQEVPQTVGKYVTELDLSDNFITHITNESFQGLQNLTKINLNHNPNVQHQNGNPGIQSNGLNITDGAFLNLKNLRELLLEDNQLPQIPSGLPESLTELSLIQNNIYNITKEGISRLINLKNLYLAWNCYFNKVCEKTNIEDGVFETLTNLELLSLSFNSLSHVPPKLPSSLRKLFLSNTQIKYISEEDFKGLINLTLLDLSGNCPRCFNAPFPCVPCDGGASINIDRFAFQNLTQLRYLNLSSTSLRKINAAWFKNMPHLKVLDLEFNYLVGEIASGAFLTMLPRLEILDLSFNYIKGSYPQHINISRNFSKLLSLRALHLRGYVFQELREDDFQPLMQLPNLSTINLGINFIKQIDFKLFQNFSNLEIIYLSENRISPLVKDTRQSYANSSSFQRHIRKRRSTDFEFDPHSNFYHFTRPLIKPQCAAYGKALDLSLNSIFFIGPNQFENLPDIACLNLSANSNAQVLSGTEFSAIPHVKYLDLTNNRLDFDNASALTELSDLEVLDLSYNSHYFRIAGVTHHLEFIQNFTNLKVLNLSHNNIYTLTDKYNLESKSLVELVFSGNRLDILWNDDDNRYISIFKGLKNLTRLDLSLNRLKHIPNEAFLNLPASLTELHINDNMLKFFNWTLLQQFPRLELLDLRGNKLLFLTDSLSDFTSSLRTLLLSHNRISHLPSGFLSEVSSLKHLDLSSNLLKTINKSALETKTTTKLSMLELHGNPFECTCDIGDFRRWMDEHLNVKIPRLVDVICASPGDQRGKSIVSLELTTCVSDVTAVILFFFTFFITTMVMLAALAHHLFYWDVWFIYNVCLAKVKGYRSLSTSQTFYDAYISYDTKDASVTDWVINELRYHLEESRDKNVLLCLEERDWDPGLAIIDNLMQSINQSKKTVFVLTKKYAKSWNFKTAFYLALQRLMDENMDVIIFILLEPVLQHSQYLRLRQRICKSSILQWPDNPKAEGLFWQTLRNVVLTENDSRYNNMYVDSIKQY
- method description: TLR8 inhibition reporter assay (HEK-Blue cells, SEAP reporter, R848 stimulation)
- cond: HEK-Blue cells overexpressing human TLR8, SEAP reporter, R848 15.9 μM
Please respond with reported IC50 for every item in the list.

Need IC50, item CNCCN1CCC(c2ccc3[nH]c(-c4ccc5ncnn5n4)c(C)c3c2)CC1
< 100 nM

Repeat with CC(C)c1c(-c2ccnc3[nH]ncc23)[nH]c2ccc(C3CCN(Cc4ncn(C)n4)CC3)cc12
< 100 nM

Repeat with CC(C)c1c(-c2cnc3ccnn3c2)[nH]c2ccc(C3CCN(C4COC4)CC3)cc12
> 3130 nM

Repeat with CC(C)c1c(-c2cc(N)c3nccn3c2)[nH]c2ccc(C3CCNCC3)cc12
< 100 nM

Repeat with CC(C)c1c(-c2cnc3ncnn3c2)[nH]c2ccc(C3CCN(CC(C)(C)O)CC3)cc12
< 100 nM

Repeat with Cc1cc(-c2[nH]c3ccc(C4CCN(C(=O)CN5CCOCC5)CC4)cc3c2C(C)C)cn2nnnc12
< 100 nM

Repeat with CCc1c(-c2ccnc3[nH]cnc23)[nH]c2ccc(C3CCNCC3)cc12
< 100 nM

Repeat with Cc1nc2cc(-c3[nH]c4ccc(C5CCN(C6COC6)CC5)cc4c3C(C)C)cc(C)c2o1
1000 to 50000 nM

These data points were gathered from patent US11739098B2.
